# target or test system: MLE dsRBD1+2 WT (Drosophila, UniProt P24785 1-264)
# Sequence (P24785 1-264): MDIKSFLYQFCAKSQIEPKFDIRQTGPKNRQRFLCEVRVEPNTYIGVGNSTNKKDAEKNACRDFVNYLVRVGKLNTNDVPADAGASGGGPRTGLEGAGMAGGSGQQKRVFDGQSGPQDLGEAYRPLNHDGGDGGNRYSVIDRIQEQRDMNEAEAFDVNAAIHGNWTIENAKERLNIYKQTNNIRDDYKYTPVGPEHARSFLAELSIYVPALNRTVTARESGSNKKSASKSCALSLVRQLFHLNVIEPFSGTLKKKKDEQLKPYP
# procedure text: fluorescence polarization; FP: 80 nM 3'-FAM RNA stock mixed 1:1 with protein, buffer D (composition not in material), 15 min, 20 C; EMSA: 1200 nM RNA stock mixed 1:1 with protein, buffer
# reported conditions: protein: recombinant; tags: SUMO tag (N-terminal, with Ni-NTA purification) removed by ULP1; label: 3'-FAM; hairpin
measurement type: pKd
pKd here is simply -log10 of the concentration when that concentration is written in mol/L.

# binder, pKd
rows = [
    ("R2H1 U124A (structured_RNA) RNA: GCUUUAGAGAACGUUUCGAAUCACAUUGAUAAUCGUUCGAAACGUUCUCCGAAGC", 5.99),
]

// sample R2H1 U134C/C135G (structured_RNA) RNA: GCUUUAGAGAUCGUUUCGAACGACAUUGAUAAUCGUUCGAAACGUUCUCCGAAGC , its pKd was 6.37

// sample R2H1 U118C/A119G (structured_RNA) RNA: GCUUCGGAGAUCGUUUCGAAUCACAUUGAUAAUCGUUCGAAACGUUCUCCGAAGC , its pKd was 6.38
